system: mock-infected MT-4 cells; assay: Cytotoxicity: viability of mock-infected cells by the MTT method; assay type: cell-based
endpoint-label: CC50 (µM)
Please respond with the number in µM and leave the unit unwritten.

> print(dat)
                                   molecule  units.text  numeric.value
1  CCC(c1ccccc1)c1cc(=O)[nH]c(SC(C)C)n1 (racemic)          µM            200

So what does the record say about CC50 for CNc1nc(C(C)c2c(F)cccc2F)c(C)c(=O)[nH]1 (racemic) ?
200

###

system: mock-infected MT-4 cells; assay: Cytotoxicity: viability of mock-infected cells by the MTT method; assay type: cell-based
endpoint-label: CC50

Solved cases (5 shown):
> print(dat)
                                   molecule    result
1  CCC(C)Sc1nc(Cc2ccc([N+](=O)[O-])cc2)cc(=O)[nH]1 (racemic) [MC 863]    151 µM
2  CCCCSc1nc(C(C)c2c(F)cccc2F)c(C)c(=O)[nH]1 (racemic) [MC 1175]    112 µM
3  CCC(C)Sc1nc(Cc2ccc(F)cc2)cc(=O)[nH]1 (racemic) [MC 889]  > 200 µM
4  CCC(C)Nc1nc(C(C)c2c(F)cccc2F)cc(=O)[nH]1 (mixture of isomers) [MC 1192]     86 µM
5  CCC(C)Sc1nc(Cc2ccccc2C(F)(F)F)cc(=O)[nH]1 (racemic) [MC 868]  > 200 µM

So what does the record say about CC50 for CC(c1ccccc1)c1cc(=O)[nH]c(SC2CCCC2)n1 (racemic) [MC 892] ?
159 µM

So what does the record say about CC50 for CC1CCC(C)C(Oc2nc(Cc3ccccc3)cc(=O)[nH]2)C1 (mixture of isomers) [MC 507] ?
143 µM

###

Attribute: CC50
Tested on: mock-infected MT-4 cells
Assay: Cytotoxicity: viability of mock-infected cells by the MTT method
Format: cell-based
Description: Compounds. Compounds were solubilized in DMSO at 200 mM and then diluted into culture medium. Cells and viruses. […] Anti-HIV assays. […] After a 4-day incubation at 37° C., the number of viable cells was determined by the 3-(4,5-dimethylthiazol-[…])-2,5-diphenyltetrazolium bromide (MTT) method. Cytotoxicity of the compounds was evaluated in parallel with their antiviral activity. It was based on the viability of mock-infected cells, as monitored by the MTT method.
Please respond with the number in µM and leave the unit unwritten.

Solved cases (5 shown):
> print(dat)
                                   compound                    target  units.text  numeric.value
1  Cc1c(C(C)c2c(F)cccc2F)nc(SC(C)C)[nH]c1=O (racemic)  mock-infected MT-4 cells          µM            200
2  CCC(C)Sc1nc(Cc2ccc(Cl)cc2)cc(=O)[nH]1 (racemic)  mock-infected MT-4 cells          µM            120
3  Cc1c(C(C)c2c(F)cccc2F)nc(NC2CCCCC2)[nH]c1=O (racemic)  mock-infected MT-4 cells          µM             58
4  CCC(C)Oc1nc(Cc2c(F)cccc2F)cc(=O)[nH]1 (racemic)  mock-infected MT-4 cells          µM            130
5  CCCCNc1nc(C(C)c2c(F)cccc2F)cc(=O)[nH]1 (racemic)  mock-infected MT-4 cells          µM             52

We next turn to a different compound, shown below.
So what does the record say about CC50 for CC(c1cc(=O)[nH]c(NC2CCCCC2)n1)c1c(F)cccc1F (racemic) ?
56

###

system: mock-infected MT-4 cells; test: Cytotoxicity: viability of mock-infected cells by the MTT method; assay type: cell-based
Attribute: CC50
Please respond with the number in µM and leave the unit unwritten.

> print(dat)
                                   molecule                    target  numeric.value
1  CCC(C)Sc1nc(Cc2ccc(C(F)(F)F)cc2)cc(=O)[nH]1 (racemic) [MC 959]  mock-infected MT-4 cells            200
2  CNc1nc(C(C)c2c(F)cccc2F)cc(=O)[nH]1 (racemic) [MC 1178]  mock-infected MT-4 cells            106
3  CC(C)Nc1nc(C(C)c2c(F)cccc2F)cc(=O)[nH]1 (racemic) [MC 1191]  mock-infected MT-4 cells            115
4  CCC(C)Sc1nc(C(c2ccccc2)c2ccccc2)cc(=O)[nH]1 (racemic) [MC 796]  mock-infected MT-4 cells             61

So what does the record say about CC50 for CCC(C)Sc1nc(Cc2ccc(C)cc2)cc(=O)[nH]1 (racemic) [MC 809] ?
200

So what does the record say about CC50 for CC1CCC(Oc2nc(Cc3ccccc3)cc(=O)[nH]2)CC1C (mixture of isomers) [MC 508] ?
58

So what does the record say about CC50 for Cc1c(Cc2ccccc2)nc(OC2CC(C)CCC2C)[nH]c1=O (mixture of isomers) [MC 531] ?
138

So what does the record say about CC50 for CCCCNc1nc(C(C)c2c(F)cccc2F)c(C)c(=O)[nH]1 (racemic) [MC 1187] ?
83

So what does the record say about CC50 for CCC(C)Sc1nc(Cc2cccc([N+](=O)[O-])c2)cc(=O)[nH]1 (racemic) [MC 897] ?
157

###

Attribute: CC50
tested on: mock-infected MT-4 cells; assay: Cytotoxicity: viability of mock-infected cells by the MTT method; type: cell-based

Solved cases (2 shown):
> print(dat)
                                   compound  endpoint.label    result
1  CCC(c1ccccc1)c1cc(=O)[nH]c(SC2CCCC2)n1 (racemic)            CC50  > 200 µM
2  CCC(C)Sc1nc(Cc2ccccc2[N+](=O)[O-])cc(=O)[nH]1 (racemic)            CC50  > 200 µM

mock-infected MT-4 cells / CC50 / Cc1c(C(C)c2c(F)cccc2F)nc(SC2CCCCC2)[nH]c1=O (racemic) : value?
> 200 µM
